These entries and their values trace back to the supplement of paper PMC6555819.

# Test system: THRa:RXRa (NR concentration 90 nM, RXRa partner concentration 90 nM)
# PROCEDURE DETAILS: PBM binding z-score (relative to random genomic background probes); higher = stronger binding; sequences stand for … in GC…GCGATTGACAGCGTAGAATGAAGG
MEASURED QUANTITY: PBM binding z-score

{"RESIDUE CODES": "GCTAGTTGGTCAGTAAAAGATCACACACCGGTCG", "ASSAY TARGET": "THRa:RXRa (NR concentration 90 nM, RXRa partner concentration 90 nM)", "PBM binding z-score": -0.299}
{"RESIDUE CODES": "AGTCAAAGTTCAGGACGGGGTAACGTAAAGCACG", "ASSAY TARGET": "THRa:RXRa (NR concentration 90 nM, RXRa partner concentration 90 nM)", "PBM binding z-score": 3.8}

Would you be so kind as to report PBM binding z-score for each listed record?
1. TGTCAAATTTCAAAGGTAACGTAAGTATCCACAC
2. TCATATAGGTAAAAGGTGAAAGGCGGTGTGGTAA
3. ATATCTAGGTAAAGATAGTTCAGTGAATGCAAAT

**Result**
1.27
1.56
0.642

**Query** Which PBM binding z-score value belongs to AGAATGAGGTTATACGTAGAGCAGGGAAGAAAGT ?
**Result** 2.19

* * *

# Test system: RXRa homodimer (NR concentration 180 nM)
# PROCEDURE DETAILS: PBM binding z-score (relative to random genomic background probes); higher = stronger binding; sequences stand for … in GC…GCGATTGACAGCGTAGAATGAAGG
MEASURED QUANTITY: PBM binding z-score
Give bare numbers.

Below: 5 sequences and their reported PBM binding z-score.
{"RESIDUE CODES": "CCTTACGGGTCACGAGGTGATAGCACGACGAGCG", "MEASURED QUANTITY": "PBM binding z-score", "NUMERIC READOUT": 6.44}
{"RESIDUE CODES": "ACTATTAGTTGCCTTAGGGCAACCGATACGACGC", "MEASURED QUANTITY": "PBM binding z-score", "NUMERIC READOUT": 0.447}
{"RESIDUE CODES": "CCTAGCAGGCCAAACTGGGTCACTCAAGGCTTGA", "MEASURED QUANTITY": "PBM binding z-score", "NUMERIC READOUT": 0.807}
{"RESIDUE CODES": "CTCGAAAGGTTGTGCTCAGGTGAGTATACCAAAC", "MEASURED QUANTITY": "PBM binding z-score", "NUMERIC READOUT": 0.825}
{"RESIDUE CODES": "CCTTCTGGGCCAAAGGTCATTGATTCCAATGCTC", "MEASURED QUANTITY": "PBM binding z-score", "NUMERIC READOUT": 6.15}

Would you be so kind as to report PBM binding z-score for each listed record?
1. AATACAGGGCCATCGTAGGCCAGAGTACGCACAG
2. TCTATTAGTTGAAGGGCGACCGACGAGTCCGTTT
3. GCTAGCAGGCCATTTGGGTCACTTAATGACGGGC
4. ATACCAAGGTGATCGTGAGGGCGTTGATACTAAC
5. CCTTTCGGGTCACTGACAGGTTATAGCATTTGGA
6. GCGACTGGGGCAAAGCAGGCTACCATAAGGTTGG

**Result**
1: 0.0629; 2: 0.439; 3: 0.684; 4: 0.36; 5: 5.16; 6: 0.0152

**Query** Which PBM binding z-score value belongs to AGTCAACGTTCAGGACGAGGTAACGTAAAGCACG ?
**Result** 0.0619

* * *

# Tested on: PXR:RXRa (NR concentration 270 nM, RXRa partner concentration 90 nM)
# PROCEDURE DETAILS: PBM binding z-score (relative to random genomic background probes); higher = stronger binding; sequences stand for … in GC…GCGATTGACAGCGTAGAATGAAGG
Label label 1 when PBM binding z-score >= 0.8; otherwise label 0.

{"RESIDUE CODES": "CAGACTGGGGCAAAGGTTACCATACTCAGTACGA", "LABEL": "label 1"}

**Query** Decide: PBM binding z-score of CCGACTGGGGCAAAGATTACCATACTCAGTACGA >= 0.8?
**Result** label 0

**Query** Decide: PBM binding z-score of CCCGCTAGGTCAATGGTCAGCTAAAGCAGCTCGC >= 0.8?
**Result** label 1

**Query** Decide: PBM binding z-score of CGAACTAGGTCATCCAGTACAGTGAATACATTGA >= 0.8?
**Result** label 1

**Query** Decide: PBM binding z-score of GCAGACAGGTGAAATGCAGGTAACTCAGGGTGGC >= 0.8?
**Result** label 0

**Query** Decide: PBM binding z-score of TTACCAATGTGAAGGTCGTTGATCCCTCTGTAGA >= 0.8?
**Result** label 1

**Query** Decide: PBM binding z-score of ACAGACTGGTGAGTGAAGGTAACTCAGCTGGACG >= 0.8?
**Result** label 0

**Query** Decide: PBM binding z-score of CAAACTAGGTCAAGAGGTCAAAGACCGCTTCCCG >= 0.8?
**Result** label 1

**Query** Decide: PBM binding z-score of CAAACTAGGTCACGAAAGGTCACAGTCGAATGAC >= 0.8?
**Result** label 1

**Query** Decide: PBM binding z-score of GCGACTTGGGCAAAGCAGGTTACCATAAGGTTGG >= 0.8?
**Result** label 0

**Query** Decide: PBM binding z-score of ACAGACAGGTGAGTGAAGGTAACCCAGCTGGACG >= 0.8?
**Result** label 0

**Query** Decide: PBM binding z-score of CAAACTAGGTCACAGAGATCAAAGTCCGTGCGTA >= 0.8?
**Result** label 1

**Query** Decide: PBM binding z-score of CCTACTGGGCCAAGGTCACTGATCAGTCAAAGCA >= 0.8?
**Result** label 1

**Query** Decide: PBM binding z-score of TCGAGTAGGTTAGTCGGGTCATTCAGCCAACATA >= 0.8?
**Result** label 1

**Query** Decide: PBM binding z-score of TCTAGTAGGCCAGAGGGTCACTCAAGAGGTACGG >= 0.8?
**Result** label 1

**Query** Decide: PBM binding z-score of ATCTCTGGGTAACAAGTTCAGTGAAAGAGAGGAC >= 0.8?
**Result** label 1

**Query** Decide: PBM binding z-score of AGAACGAGGGCACGCTGTGTTGATAGCAGAGTAG >= 0.8?
**Result** label 0

**Query** Decide: PBM binding z-score of AGAATGAGGTTATACGTAAATCAGGGAAGAAAGT >= 0.8?
**Result** label 1

**Query** Decide: PBM binding z-score of TAGCCTAGGTCAGATAGGGCCAGTATACGCTATA >= 0.8?
**Result** label 1

* * *

# Test system: RXRa homodimer (NR concentration 180 nM)
# PROCEDURE DETAILS: PBM binding z-score (relative to random genomic background probes); higher = stronger binding; sequences stand for … in GC…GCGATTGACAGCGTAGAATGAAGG
Measured PBM binding z-score determines class: low bracket (below 0.9), middle bracket (0.9 to below 3), high bracket (3 or more)

Previously resolved entries follow.
{"RESIDUE CODES": "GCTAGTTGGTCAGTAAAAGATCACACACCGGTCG", "LABEL": "low bracket"}
{"RESIDUE CODES": "GCGACTGGGGCATCAGCAGGGTACCATAACTTAA", "LABEL": "low bracket"}
{"RESIDUE CODES": "TCAGACAGGTGAAGGTATCTCAGGTACGCAGTCG", "LABEL": "middle bracket"}

Next:
**Query** Exam item: assign GCGACTGGGGCATCAGCAGGTTGCCATAACTTAA to the correct category.
**Result** low bracket

* * *

# Test system: PXR homodimer (NR concentration 270 nM)
# PROCEDURE DETAILS: PBM binding z-score (relative to random genomic background probes); higher = stronger binding; sequences stand for … in GC…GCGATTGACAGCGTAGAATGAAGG
Label rule met when PBM binding z-score >= -0.1; otherwise rule not met.

Previously resolved entries follow.
{"RESIDUE CODES": "TCTAGTAGGTTAGTCGGGGCATTCAGCCAACATA", "LABEL": "rule met"}
{"RESIDUE CODES": "AGAACTAGGGCACGCTGAGTTGATAGCAGAGTAG", "LABEL": "rule not met"}

**Query** Decide: PBM binding z-score of AGTCAAAGTTCACTAGGAAACGTAAGATTCAGCT >= -0.1?
**Result** rule met

**Query** Decide: PBM binding z-score of GCGATTAGTTGAAAGGGCAACCGAATGATTCTCG >= -0.1?
**Result** rule met

**Query** Decide: PBM binding z-score of CCGACTCGGGCATAAGGTTACCATAAGCCAGCCC >= -0.1?
**Result** rule not met

**Query** Decide: PBM binding z-score of CCTAGCAGGCAAATCTGGGTCACTCAAGGCTTGA >= -0.1?
**Result** rule not met

**Query** Decide: PBM binding z-score of GCTGCTAGGTCAGGTTGGCCAGCTAACGGGTACG >= -0.1?
**Result** rule not met

**Query** Decide: PBM binding z-score of GCGACTAGGGCAAAGCAGGTTACCATAAGGTTGG >= -0.1?
**Result** rule not met

**Query** Decide: PBM binding z-score of AGAACCAGGGCAATGAGTTGATAGCACGGGTGGC >= -0.1?
**Result** rule met

**Query** Decide: PBM binding z-score of GGAACGAGGGCATTCGAGTTGCTAGCATGGCGAT >= -0.1?
**Result** rule met

**Query** Decide: PBM binding z-score of GCTGCTAGGTCAACTGATGGACAGCTAAAGCTCG >= -0.1?
**Result** rule not met

**Query** Decide: PBM binding z-score of AGAACGAGGGCACGCTCAGTTGATAGCAGAGTAG >= -0.1?
**Result** rule met

**Query** Decide: PBM binding z-score of CGTACAAGGTCAGCAGGTCAGTGAAAGCGACGTG >= -0.1?
**Result** rule met

**Query** Decide: PBM binding z-score of ACTATTAGTTTACTTAGGGCAACCGATACGACGC >= -0.1?
**Result** rule met

**Query** Decide: PBM binding z-score of ACTAGCAGGGCAAGTTTGGGTCACTCAAACAAAG >= -0.1?
**Result** rule not met

**Query** Decide: PBM binding z-score of GCTAGTTGGTCAGTAAAAGGCCACACACCGGTCG >= -0.1?
**Result** rule not met

**Query** Decide: PBM binding z-score of TGTACAGGGTCAAAGGCCAGAGTACGAATGTCGA >= -0.1?
**Result** rule met
